tested-system: T1, human LAG-3 on cells (HEK293-hLAG-3 stable cell line) (human, UniProt P18627 23-525)
T1 sequence: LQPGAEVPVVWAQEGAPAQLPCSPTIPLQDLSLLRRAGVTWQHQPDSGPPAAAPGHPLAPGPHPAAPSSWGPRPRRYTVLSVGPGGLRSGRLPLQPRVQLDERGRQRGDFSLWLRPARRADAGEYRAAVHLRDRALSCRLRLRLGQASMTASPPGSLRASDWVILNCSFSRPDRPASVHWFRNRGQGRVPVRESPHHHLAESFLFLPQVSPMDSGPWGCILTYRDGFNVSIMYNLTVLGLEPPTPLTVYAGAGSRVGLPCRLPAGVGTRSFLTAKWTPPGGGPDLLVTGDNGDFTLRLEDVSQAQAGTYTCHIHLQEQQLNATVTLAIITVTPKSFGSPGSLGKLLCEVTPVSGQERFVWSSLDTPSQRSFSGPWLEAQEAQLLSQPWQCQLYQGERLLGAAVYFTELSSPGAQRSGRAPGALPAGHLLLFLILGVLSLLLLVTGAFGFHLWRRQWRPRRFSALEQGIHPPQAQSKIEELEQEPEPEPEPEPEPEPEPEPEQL
protocol-text: FACS, HEK293-hLAG-3, antibody 40.000 nM
outcome-measure: Mean fluorescence intensity
# output: bare number, no unit

Return value of Mean fluorescence intensity for input 405B8H3 mouse-human chimeric antibody (antibody, V domains shown, also called mAb103-405B8H3) VH: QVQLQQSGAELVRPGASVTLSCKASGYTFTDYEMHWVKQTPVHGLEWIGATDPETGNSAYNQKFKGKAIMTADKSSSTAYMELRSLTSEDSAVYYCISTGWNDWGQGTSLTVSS VL: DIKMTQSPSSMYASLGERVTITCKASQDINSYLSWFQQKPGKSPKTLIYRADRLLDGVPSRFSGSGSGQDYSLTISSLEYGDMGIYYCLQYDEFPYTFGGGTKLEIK , no commentary. 158

Return value of Mean fluorescence intensity for input 409D4E10 mouse-human chimeric antibody (antibody, V domains shown, also called mAb112-409D4E10) VH: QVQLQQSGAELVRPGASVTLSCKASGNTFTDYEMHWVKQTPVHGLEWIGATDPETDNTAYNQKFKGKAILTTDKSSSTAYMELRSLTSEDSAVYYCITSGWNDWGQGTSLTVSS VL: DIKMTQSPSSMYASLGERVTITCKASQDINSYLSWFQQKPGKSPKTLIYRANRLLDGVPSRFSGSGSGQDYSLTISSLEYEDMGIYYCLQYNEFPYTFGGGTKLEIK , no commentary. 140

Return value of Mean fluorescence intensity for input 556F6B8 mouse-human chimeric antibody (antibody, V domains shown, also called mAb123-556F6B8; 556F8B8) VH: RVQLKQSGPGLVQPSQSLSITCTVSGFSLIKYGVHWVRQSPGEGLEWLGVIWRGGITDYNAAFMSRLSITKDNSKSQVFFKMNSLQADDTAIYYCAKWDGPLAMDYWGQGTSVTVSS VL: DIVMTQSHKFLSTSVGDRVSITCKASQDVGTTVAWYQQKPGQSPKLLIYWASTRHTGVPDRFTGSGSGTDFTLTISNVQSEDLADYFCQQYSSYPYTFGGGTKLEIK , no commentary. 123

Return value of Mean fluorescence intensity for input 105F1E10 mouse-human chimeric antibody (antibody, V domains shown, also called mAb009-105F1E10) VH: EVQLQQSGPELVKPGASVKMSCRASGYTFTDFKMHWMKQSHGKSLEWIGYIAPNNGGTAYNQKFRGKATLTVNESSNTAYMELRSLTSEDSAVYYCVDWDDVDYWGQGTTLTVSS VL: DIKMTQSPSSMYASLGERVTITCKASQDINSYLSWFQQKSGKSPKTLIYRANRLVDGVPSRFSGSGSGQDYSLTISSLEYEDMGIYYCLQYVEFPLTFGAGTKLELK , no commentary. 146

Data credit: patent US20210155689A1
